Please respond with reported pEC50 for every item in the list.
- system name: T1, CLDN4-GFP expressed on engineered HEK293T cells (human, UniProt O14493 1-209)
- T1 construct: whole, on cells; also called HEK293T CLDN4-mGFP; Artificial CLDN4+; not shown: GFP tag
- T1 sequence (looked up): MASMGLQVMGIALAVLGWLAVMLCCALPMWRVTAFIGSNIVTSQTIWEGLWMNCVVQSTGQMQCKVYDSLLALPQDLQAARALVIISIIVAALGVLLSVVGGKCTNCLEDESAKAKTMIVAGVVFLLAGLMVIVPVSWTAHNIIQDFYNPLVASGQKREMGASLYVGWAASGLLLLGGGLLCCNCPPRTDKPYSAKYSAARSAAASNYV
- procedure summary: FACS dose curve, labelled mAb, HEK293T CLDN4-mGFP cells
Answers are plain numbers, as −log10 of the molar value.

AB11 (antibody, V domains shown, Full-length IgG (ExpiCHO)) VH: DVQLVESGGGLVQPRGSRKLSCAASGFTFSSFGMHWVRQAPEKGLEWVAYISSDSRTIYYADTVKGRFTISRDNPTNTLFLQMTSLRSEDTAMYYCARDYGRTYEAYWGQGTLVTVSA VL: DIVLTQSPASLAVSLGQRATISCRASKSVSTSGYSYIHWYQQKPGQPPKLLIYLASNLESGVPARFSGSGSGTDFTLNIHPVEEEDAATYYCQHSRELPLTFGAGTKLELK
5.65
AB6 (antibody, V domains shown, Full-length IgG (ExpiCHO)) VH: DVQLQESGPGLVKSSQSLSLTCSVTGYSITSGYYWKWIRQFPGNKLEWMGYISYDGGINYNPSLKNRISITRDTSKNQFFLKLNSVTTEDTAKYYCARFGKGAMDYWGQGTSVTVSS VL: AIVMFQSPSSLVVSAGEKVTMSCKSSQSLLNSRTRKNYLAWYQQKPGQSPKLLIYWASTRESGVPDRFTGSGSGTDFTLTISSVQAEDLAVYYCKQSYYLYTFGGGTKLEIK
7.59

Could you report pEC50 for every entry in the following list?
1. AB12 (antibody, V domains shown, Full-length IgG (ExpiCHO)) VH: EVKLMESGGDLVKPGGSLKLSCAASGFTFSSYAMSWVRQTPEKRLEWVASIRSGGTTYYPDSVKGRFTISRDNARNILYLRMSSLRSEDTAIYYCAKVGGNPYPMDYWGQGTSVTVSS VL: DIQMIQSPSSMFASLGDRVSLSCRASQDIGGNLDWYQQKPGGTIKLLIYSTSNLNSGVPSRFSGSGSGSDYSLTITSLESEDFADYYCLQRNAYPLTFGAGTKLELK
2. AB7 (antibody, V domains shown, Full-length IgG (ExpiCHO)) VH: EVQLQQSGPELVKPGASMKISCKASGYSFTGYTMNWVKQSHGKNLEWIGLINPYNGGTNYNQKFKGKATLTVDKSSSTAYMELLSLTSEDSAVYYCARGVYDYDGFTYWGQGTLVTVSA VL: QIVLTQSPAIMSASLGDRVTMTCTASSSVSSSYLHWYQQKPGSSPKLWIYSTSNLASGVPARFSGSGSGTSYSLTISSMEAEDAATYYCHQYHRSPPTFGSGTKLEIK

1: 5.68; 2: 5.68
